Recorded values, source patent US20240060146A1.

System: 2H4 cells
assay_info: Evaluation of combination of IL-2 Luc LTT and IL-2 Luc assay
Assay type: cell-based
Design: key: Positive (Pos): If the result is either LCT in the IL-2 Luc LTT or S in the IL-2 Luc assay, or both, the chemical substance is determined to be an immunosuppressive substance.; Negative (Neg): In the case other than the above, the chemical substance is determined to be a non-immunosuppressive substance
recorded_conditions: LCT in IL-2 Luc LTT or S in IL-2 Luc assay = Pos
reported_property: Evaluation of Combination

compound: C[C@H]1O[C@@H](O[C@H]2[C@@H](O)C[C@H](O[C@H]3[C@@H](O)C[C@H](O[C@H]4CC[C@@]5(C)[C@H](CC[C@@H]6[C@@H]5C[C@@H](O)[C@]5(C)[C@@H](C7=CC(=O)OC7)CC[C@]65O)C4)O[C@@H]3C)O[C@@H]2C)C[C@H](O)[C@@H]1O [Digoxin]
measurement: Pos
--
compound: NS(=O)(=O)c1cc2c(cc1Cl)N=CNS2(=O)=O [Chlorothiazide]
measurement: Neg
--
compound: Cn1cnc([N+](=O)[O-])c1Sc1ncnc2nc[nH]c12 [Azathioprine (AZ), Azathioprine]
measurement: Pos
--
compound: NC(=O)c1cccnc1 [Nicotinamide (NA), Nicotinamide]
measurement: Pos
--
compound: O=C([O-])[O-].[Li+].[Li+] [Lithium carbonate]
measurement: Neg
--
compound: CO[C@H]1C[C@@H]2CC[C@@H](C)[C@@](O)(O2)C(=O)C(=O)N2CCCC[C@H]2C(=O)O[C@H]([C@H](C)C[C@@H]2CC[C@@H](O)[C@H](OC)C2)CC(=O)[C@H](C)/C=C(\C)[C@@H](O)[C@@H](OC)C(=O)[C@H](C)C[C@H](C)/C=C/C=C/C=C/1C [Rapamycin (RPM), Rapamycin]
measurement: Pos
--
compound: S=c1nc[nH]c2nc[nH]c12 [6-Mercaptoprine]
measurement: Neg

* * *

Test system: 2H4 cells
assay_info: Evaluation of combination of IL-2 Luc LTT and IL-2 Luc assay
Format: cell-based
Parameters: key: Positive (Pos): If the result is either LCT in the IL-2 Luc LTT or S in the IL-2 Luc assay, or both, the chemical substance is determined to be an immunosuppressive substance.; Negative (Neg): In the case other than the above, the chemical substance is determined to be a non-immunosuppressive substance
recorded_conditions: LCT in IL-2 Luc LTT or S in IL-2 Luc assay = Pos
Counter-ions that a name gives are not always drawn.

compound: Nc1ccn([C@@H]2O[C@H](CO)[C@@H](O)[C@@H]2O)c(=O)n1
Evaluation of Combination: Pos
--
compound: Nc1ccn([C@@H]2O[C@H](CO)[C@@H](O)C2(F)F)c(=O)n1 [Gemcitabine hydrochloride]
Evaluation of Combination: Pos
--
compound: CN(C/C=C/C#CC(C)(C)C)Cc1cccc2ccccc12
Evaluation of Combination: Pos

* * *

System: 2H4 cells
assay_info: IL-2 Luc LTT: evaluation of chemical substance in 2H4 cells
Type: cell-based
recorded_conditions: 1 h chemical, then 25 nM PMA and 1 μM ionomycin 24 h, class from Min % suppression (nIL2LA) and Min Inh-GAPLA
reported_property: IL-2 Luc LTT

molecule: C[C@H]1O[C@@H](O[C@H]2[C@@H](O)C[C@H](O[C@H]3[C@@H](O)C[C@H](O[C@H]4CC[C@@]5(C)[C@H](CC[C@@H]6[C@@H]5C[C@@H](O)[C@]5(C)[C@@H](C7=CC(=O)OC7)CC[C@]65O)C4)O[C@@H]3C)O[C@@H]2C)C[C@H](O)[C@@H]1O
target_or_test_system: 2H4 cells
measurement: NLCT
--
molecule: Cc1cn([C@H]2C[C@H](N=[N+]=[N-])[C@@H](CO)O2)c(=O)[nH]c1=O
target_or_test_system: 2H4 cells
measurement: NLCT
--
molecule: Cc1oncc1C(=O)Nc1ccc(C(F)(F)F)cc1 [Leflunomide]
target_or_test_system: 2H4 cells
measurement: NLCT
--
molecule: Cc1c(OCC(F)(F)F)ccnc1C[S+]([O-])c1nc2ccccc2[nH]1 (stereo not drawn)
target_or_test_system: 2H4 cells
measurement: NLCT
--
molecule: NS(=O)(=O)c1cc2c(cc1Cl)N=CNS2(=O)=O [Chlorothiazide]
target_or_test_system: 2H4 cells
measurement: NLCT

* * *

System: 2H4 cells
assay_info: Evaluation of combination of IL-2 Luc LTT and IL-2 Luc assay
Format: cell-based
Parameters: key: Positive (Pos): If the result is either LCT in the IL-2 Luc LTT or S in the IL-2 Luc assay, or both, the chemical substance is determined to be an immunosuppressive substance.; Negative (Neg): In the case other than the above, the chemical substance is determined to be a non-immunosuppressive substance
recorded_conditions: LCT in IL-2 Luc LTT or S in IL-2 Luc assay = Pos

molecule: CC(=O)Nc1ccc(O)cc1 [Acetaminophen (AA), Acetaminophen]
Evaluation of Combination: Pos
--
molecule: Cc1c(OCC(F)(F)F)ccnc1C[S+]([O-])c1nc2ccccc2[nH]1 (stereo not drawn) [Lansoprazole]
Evaluation of Combination: Pos
--
molecule: Cc1oncc1C(=O)Nc1ccc(C(F)(F)F)cc1 [Leflunomide]
Evaluation of Combination: Pos
--
molecule: CCN(CC)CCCC(C)Nc1ccnc2cc(Cl)ccc12 (stereo not drawn) [Chloroquine (CQ), Chloroquine]
Evaluation of Combination: Pos
--
molecule: CS(=O)(=O)OCCCCOS(C)(=O)=O [Busulfan]
Evaluation of Combination: Neg
--
molecule: CN(C)c1ccc(O)c2c1C[C@H]1C[C@H]3[C@H](N(C)C)C(O)=C(C(N)=O)C(=O)[C@@]3(O)C(O)=C1C2=O [Minocycline (MC), Minocycline]
Evaluation of Combination: Pos
--
molecule: Nc1nc(F)nc2c1ncn2[C@@H]1O[C@H](CO)[C@@H](O)[C@@H]1O [Fludarabine]
Evaluation of Combination: Pos
--
molecule: COc1ccc2c(c1)c(CC(=O)O)c(C)n2C(=O)c1ccc(Cl)cc1 [Indomethacin]
Evaluation of Combination: Pos
--
molecule: OC[C@@H](O)[C@@H](O)[C@H](O)[C@H](O)CO [Mannitol]
Evaluation of Combination: Neg

* * *

Tested on: 2H4 cells
assay_info: Evaluation of combination of IL-2 Luc LTT and IL-2 Luc assay
Format: cell-based
Set-up: key: Positive (Pos): If the result is either LCT in the IL-2 Luc LTT or S in the IL-2 Luc assay, or both, the chemical substance is determined to be an immunosuppressive substance.; Negative (Neg): In the case other than the above, the chemical substance is determined to be a non-immunosuppressive substance
recorded_conditions: LCT in IL-2 Luc LTT or S in IL-2 Luc assay = Pos

compound: NNC(=O)c1ccncc1 [Isoniazid]
Evaluation of Combination: Neg

compound: CC(=O)CC(c1ccccc1)c1c(O)c2ccccc2oc1=O (stereo not shown) [Warfarin]
Evaluation of Combination: Neg

compound: O=C(O)c1cc(/N=N/c2ccc(S(=O)(=O)Nc3ccccn3)cc2)ccc1O [Sulfasalazine (SASP), Sulfasalazine]
Evaluation of Combination: Pos

compound: COc1cc([C@@H]2c3cc4c(cc3[C@@H](O[C@@H]3O[C@@H]5CO[C@@H](c6cccs6)O[C@H]5[C@H](O)[C@H]3O)[C@H]3COC(=O)[C@H]23)OCO4)cc(OC)c1O [Teniposide]
Evaluation of Combination: Pos

compound: Cc1ccc(=O)n(-c2ccccc2)c1 [Pirfenidone]
Evaluation of Combination: Pos

compound: Cc1cn([C@H]2C[C@H](N=[N+]=[N-])[C@@H](CO)O2)c(=O)[nH]c1=O [Retrovir]
Evaluation of Combination: Pos

compound: Nc1nc2c(ncn2COCCO)c(=O)[nH]1 [Acyclovir]
Evaluation of Combination: Neg

compound: NC(=O)c1ncn([C@@H]2O[C@H](CO)[C@@H](O)[C@H]2O)c1O [Mizoribine (MZR), Mizoribine]
Evaluation of Combination: Pos

compound: COc1cc2c(c(OC)c1OC)-c1ccc(OC)c(=O)cc1[C@@H](NC(C)=O)CC2 [Colchicine]
Evaluation of Combination: Pos

compound: Nc1nc2nc[nH]c2c(=S)[nH]1 [6-Thioguanine]
Evaluation of Combination: Pos

compound: O=c1[nH]cc(F)c(=O)[nH]1 [5-Fluorouracil]
Evaluation of Combination: Pos

compound: C=CC[C@@H]1/C=C(\C)C[C@H](C)C[C@H](OC)[C@H]2O[C@@](O)(C(=O)C(=O)N3CCCC[C@H]3C(=O)O[C@H](/C(C)=C/[C@@H]3CC[C@@H](O)[C@H](OC)C3)[C@H](C)[C@@H](O)CC1=O)[C@H](C)C[C@@H]2OC [Tacrolimus (Tac), Tacrolimus]
Evaluation of Combination: Pos

compound: O=NN(CCCl)C(=O)NCCCl [Carmustine]
Evaluation of Combination: Pos

compound: C[C@@H]1C[C@H]2[C@@H]3CCC4=CC(=O)C=C[C@]4(C)[C@@]3(F)[C@@H](O)C[C@]2(C)[C@@]1(O)C(=O)CO [Dexamethasone (Dex), Dexamethasone]
Evaluation of Combination: Neg

compound: CN(C)CCOC(c1ccccc1)c1ccccc1 [Diphenhydramine]
Evaluation of Combination: Pos

compound: COc1cc([C@@H]2c3cc4c(cc3[C@@H](O[C@@H]3O[C@@H]5CO[C@@H](C)O[C@H]5[C@H](O)[C@H]3O)[C@H]3COC(=O)[C@H]23)OCO4)cc(OC)c1O [Etoposide]
Evaluation of Combination: Pos
